# assay: NCI Yeast Anticancer Drug Screen. Data for the sgs1 mgt1 strain (AID 161);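 further: 0% = growth of cultures given vehicle only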
# measurement-conditions: S. cerevisiae sgs1 mgt1 strain, at 5.0 µM (retest, dose inferred, filed as 0.5), active compounds read high
About 79,000 compounds went through this panel and 15% of them were active in at least one assay; those are over-represented in the sample as a whole. Activity calls are given as the source filed them. No stated cut-off is given here; in the data, active means growth inhibition above about 70%; inactive means the rest.
recorded-endpoint: growth inhibition

Query string: Supply measured growth inhibition of O=C1Nc2ccccc2/C1=C/COc1ccccc1 in your reply.
Result string: 26% (inactive)

Query string: State its growth inhibition for this compound: COc1ccccc1N=NC(C(=O)c1ccccc1)C(=O)c1ccccc1
Result string: 22% (inactive)

Query string: Annotate the compound Nc1nc(Cl)c(Cl)c(Cl)n1 with its measured growth inhibition.
Result string: 59% (inactive)

Query string: Indicate the recorded growth inhibition value for this compound: c1ccc2c(c1)NC(NC1Nc3ccccc3N1)N2
Result string: -4% (inactive)

Query string: Tell me measured growth inhibition for CN(C)CCn1c2c3ccccc3ccc2c2oc(=O)c3ccccc3c21 please.
Result string: -1% (inactive)

Query string: Consider the compound c1ccc(-c2ccnc3c2ccc2c(-c4ccccc4)ccnc23)cc1 . State its measured growth inhibition.
Result string: 23% (inactive)

Query string: Let me know recorded growth inhibition for CCCCCCCCC/C=C/C=C/C(=O)NCC(=O)NC1C(O)C(O)C(Nc2ncnc3nc[nH]c23)OC1C(O)CO (centres undefined) , thanks.
Result string: 2% (inactive)

Query string: Please list growth inhibition recorded for the compound O=C1C2CC[C@@H]3C(=O)C(Cl)(Cl)[C@@H]3CCC2C1(Cl)Cl (some centres undefined)
Result string: 18% (inactive)

Query string: Give reported growth inhibition value for CC(=O)OCc1ccc(O)c(C=O)c1
Result string: 36% (inactive)

Query string: Indicate the recorded growth inhibition value for this compound: O=C(NCCCCNCCCNC(=O)c1cc(-c2ccccc2)nc2ccccc12)c1cc(-c2ccccc2)nc2ccccc12
Result string: -16% (inactive)

Query string: Entry O=C(O)c1cccc(-c2c3ccc(=O)cc-3oc3cc(O)ccc23)c1 needs its growth inhibition filled in; supply it.
Result string: 0% (inactive)

Query string: Provide measured growth inhibition value, entry: COc1cc(C2SCC(=O)N2c2ccc(-c3ccc(-n4c(-c5ccccc5)nc5ccccc5c4=O)cc3)cc2)cc(OC)c1OC (centres undefined)
Result string: 8% (inactive)

Query string: Specify measured growth inhibition for O=[N+]([O-])c1ccc([N+]2=NC(c3ccccc3)=NN(c3ccccc3)C2)cc1 .
Result string: -1% (inactive)

Query string: Hello, please tell me recorded growth inhibition for this one: Clc1cccc(C(Nc2nncs2)Nc2nncs2)c1Cl
Result string: 1% (inactive)

Query string: Using known records, supply growth inhibition for O=C(/C=C/c1cccc(Br)c1)c1cccs1
Result string: 16% (inactive)

Query string: Identify measured growth inhibition corresponding to O=[N+]([O-])CC(SCc1ccccc1)c1ccc2c(c1)OCO2 (centres undefined)
Result string: -4% (inactive)

Query string: Specify measured growth inhibition for C[C@@H]1C[C@H]2[C@@H]3CCC4=CC(=O)C=C[C@]4(C)[C@@]3(Cl)[C@@H](Cl)C[C@]2(C)[C@@]1(O)C(=O)COP(=O)(O)O .
Result string: -14% (inactive)

Query string: Return growth inhibition (reported value) for this compound: Cc1cc(S(=O)(=O)/N=C(/NN)NNc2cccc(C(F)(F)F)n2)c(S)cc1Cl
Result string: -10% (inactive)

Query string: Supply growth inhibition value. Item: C(=C\c1ccccc1)/COc1ccccc1C(N1CCOCC1)n1nc2ccccc2n1 (centres undefined)
Result string: -1% (inactive)

Query string: Using the record for COC(=O)c1ccc([N+](=O)[O-])c(O)c1 , state its measured growth inhibition.
Result string: 5% (inactive)

Query string: Using the record for COc1ccc(N=C2C(=O)Nc3ccc(Br)cc32)cc1 , state its measured growth inhibition.
Result string: -15% (inactive)

Query string: Dear colleague, please send me the reported growth inhibition for O=[N+]([O-])c1cccc2nccc(NCCCO)c12 when you can.
Result string: 51% (inactive)

Query string: Retrieve growth inhibition measured for C[Si](C)(C)CNC(=O)OCc1ccccc1 and print it.
Result string: -8% (inactive)

Query string: Provide measured growth inhibition value, entry: CC1OCC2OC(C)OC(C3C4=C(CC(C)(C)CC4=O)OC4=C3C(=O)CC(C)(C)C4)C2O1 (centres undefined)
Result string: 5% (inactive)

Query string: Fill in growth inhibition for record O=C1C=CC(=O)c2c(O)c(Nc3ccc(OC(F)(F)F)cc3)c(Cl)c(O)c21
Result string: 35% (inactive)

Query string: Dear colleague, please send me the reported growth inhibition for O=C(c1ccc(Cl)cc1Cl)C(Cl)Cl when you can.
Result string: 13% (inactive)

Query string: Entry CC(=O)N/N=C/C(C)(C)C(C)(C)/C=N/NC(C)=O needs its growth inhibition filled in; supply it.
Result string: 15% (inactive)

Query string: Supply recorded growth inhibition for CCOC(=O)c1cnc2c(C(F)(F)F)cccc2c1N=[N+]=[N-] here.
Result string: 5% (inactive)

Query string: Report measured growth inhibition; entry is O=C(COC(=O)c1cc(O)c(O)c(O)c1)c1ccc(-c2ccccc2)cc1
Result string: 7% (inactive)

Query string: Please list growth inhibition recorded for the compound O=C(OCC=C1CCCC1)c1cc([N+](=O)[O-])cc([N+](=O)[O-])c1
Result string: -2% (inactive)

Query string: Give growth inhibition for the following compound: N#Cc1c(N)[nH]c2ccc(Sc3ccccc3)cc12
Result string: -3% (inactive)

Query string: Determine from records and report growth inhibition for CCCCCCCCCCCCCC[N+](C)(CC(=O)[O-])Cc1ccccc1 (centres undefined)
Result string: 13% (inactive)

Query string: # return recorded growth inhibition for input O=[N+]([O-])c1cc(CCl)ccc1CCl
Result string: 4% (inactive)

Query string: Report growth inhibition, nothing else, for this compound: c1ccc2c(c1)Oc1cccc3cccc-2c13
Result string: 0% (inactive)

---

# assay: NCI Yeast Anticancer Drug Screen. Data for the rad50 strain (AID 155);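 further: 0% = growth of vehicle-only cultures of the same strain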
# measurement-conditions: S. cerevisiae rad50 strain growth inhibition; at 50.0 µM; active compounds read high
Compounds without any hit were thinned out: in the full panel of roughly 79,000, 15% have a hit.
Label TRUE when growth inhibition is at or above 50%; anything below gets FALSE.

Query string: Hi, just wondering whether O=C(c1ccc(Cl)cc1)C1OC12C(=O)Nc1ccccc12 (stereo not given) shows growth inhibition of 50% or higher.
Result string: TRUE

Query string: Threshold query (growth inhibition >= 50%) on CCN(CC)[P+](c1ccccc1O)(N(CC)CC)N(CC)CC
Result string: TRUE

Query string: I'd appreciate it if you could say whether CNC(=O)OCc1c(COC(=O)NC)c(-c2ccc(-c3ccccc3)cc2)n(C)c1C has growth inhibition at least equal to 50%.
Result string: TRUE

Query string: Is growth inhibition at least 50%? Consider CCOC(=O)c1cnc2cc(C(F)(F)F)ccc2c1N=[N+]=[N-]
Result string: FALSE

Query string: Assess whether reported growth inhibition for O=C1NC(=O)C2C3C=CC(C3)C12 (stereo not given) sits at 50% or higher.
Result string: FALSE

Query string: Reported growth inhibition at or above 50%? O=C1c2ccccc2-c2n[nH]c3cccc1c23
Result string: TRUE

Query string: Form field: growth inhibition at least 50%? Entry: COc1ccc(N=C2C(=O)Nc3ccc(Br)cc32)cc1
Result string: FALSE

Query string: Is growth inhibition at least 50%? Consider OC1CSCCCSCCSCCCSC1
Result string: FALSE

Query string: Please check the record COc1cc(C2SCC(=O)N2c2nnc(C(F)(F)F)s2)cc(OC)c1OC (stereo not given) and state if its growth inhibition is at or above 50%.
Result string: FALSE

---

Please provide measured growth inhibition for the entries that follow.
# assay: NCI Yeast Anticancer Drug Screen. Data for the rad14 strain (AID 159);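 further: 0% = growth of vehicle-treated control cultures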
# measurement-conditions: S. cerevisiae rad14 strain growth inhibition; at 100.0 µM; active compounds read high
About 79,000 compounds went through this panel and 15% of them were active in at least one assay; those are over-represented in the sample as a whole.
Write down the numeric answer in % and omit the unit.

Query string: Consider the compound CN(C)c1ccc(Sc2ccc3nc(N)nc(N)c3c2)cc1 . State its measured growth inhibition.
Result string: 5

Query string: Please give measured growth inhibition of the following entry: C=C(CN(C)C)C(=O)c1cc(C)ccc1C
Result string: 99

Query string: Query growth inhibition for Brc1ccc(-c2cc3c(cc2C2SCCS2)OCO3)cc1
Result string: 25

Query string: Please give measured growth inhibition of the following entry: COC1=CC(=O)C2C(C1=O)C(c1ccc(Cl)cc1)[C@@H]2C (stereo not given in full)
Result string: 99

Query string: Note growth inhibition for the compound shown: CCOc1ccc2c(c1)c(CC(=O)O)cn2C
Result string: 75

---

# assay: NCI Yeast Anticancer Drug Screen. Data for the rad50 strain (AID 155);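 further: 0% = growth of vehicle-only cultures of the same strain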
# measurement-conditions: S. cerevisiae rad50 strain growth inhibition; at 5.0 µM (retest, dose inferred, filed as 0.5)
About 79,000 compounds went through this panel and 15% of them were active in at least one assay; those are over-represented in the sample as a whole. Active and inactive are the calls of the source. No stated cut-off is given here; in the data, active means growth inhibition above about 70%; inactive means the rest.
The reply should name one outcome from active, inactive

Query string: Each compound tested received a call. Report the one for c1ccc2c(c1)sc1nc3ccncc3nc12 .
Result string: inactive

Query string: // outcome(item) with item = CC(=O)OCC(=O)C1(O)CCC2C3CCC4CCCCC4(C)C3CCC21C (stereo not given)
Result string: inactive

Query string: Hello, I am checking results. What call was entered for COC1=CC(=O)C2C(C1=O)C(c1ccc(Cl)cc1)[C@@H]2C (stereo not given in full) ?
Result string: inactive

Query string: What was the test verdict on CSC1=NNC(SC)=NN1 ?
Result string: inactive

Query string: # outcome recorded in this test, key = CCCCCCCCCC/C=C\C(=O)O
Result string: inactive

Query string: What classification did Cc1c(Cl)ccc2c1S(=O)(=O)c1cccc(Cl)c1-2 end up with in this test?
Result string: active

Query string: What did the test return for COc1ccc2c(c1)C(=O)c1ccccc1C2 ?
Result string: inactive

Query string: Recorded test outcome, item O=C(CCCN1CCC2(CC1)CC(=O)N(N1CCCCCC1)C2=O)c1ccc(F)cc1
Result string: inactive

Query string: Write down the call the test reported for this compound. Item: CCOC(=O)c1cc([N+](=O)[O-])cc([N+](=O)[O-])c1Sc1ncnc2nc[nH]c12
Result string: inactive

Query string: What did this assay record as the result for Cc1ccc2ccc3cccc4ccc1c2c34 ?
Result string: inactive

Query string: Tell me the assay call for C[C@@H]1C[C@H]2[C@@H]3CCC4=CC(=O)C=C[C@]4(C)[C@@]3(Cl)[C@@H](Cl)C[C@]2(C)[C@@]1(O)C(=O)COP(=O)(O)O please.
Result string: inactive

Query string: For CCC/C(Cl)=N\OC(=O)Nc1ccc(Br)cc1 , which call appears in the assay record?
Result string: inactive

Query string: Outcome? N#CC(C(=O)Nc1ccccc1)C1=C(Cl)C(=O)c2ccccc2C1=O (stereo not given)
Result string: inactive

Query string: Which outcome was entered for the compound O=[N+]([O-])CC(SCc1ccccc1)c1ccc2c(c1)OCO2 (stereo not given) in this test?
Result string: inactive

Query string: Kindly provide the recorded test outcome for the following compound: C[Si](C)(C)CNC(=O)OCc1ccccc1
Result string: inactive

Query string: State the result this test recorded for O=C(CCCN1CCC(O)(c2ccc(Cl)cc2)CC1)c1ccc(F)cc1 .
Result string: inactive

Query string: Just curious, what result did OC(COc1cccc2ccccc12)CN1CCOCC1 (stereo not given) get here?
Result string: inactive

Query string: What did this assay record as the result for S=C(S)NN1CCOCC1 ?
Result string: active

Query string: Please share the test call associated with CCC[CH2][Ge]([CH2]CCC)([CH2]CCC)[O]C(=O)C(OC)c1ccccc1 (stereo not given) .
Result string: inactive

Query string: Which outcome was assigned to O=C(CC(=O)n1nc(-c2ccccc2)c(N=Nc2ccccc2C(=O)O)c1-c1ccccc1)Nc1ccc(Cl)cc1 in this test?
Result string: inactive

# credit: PubChem BioAssay (NCI)
